System: Danio rerio larvae (5 dpf)
protocol_notes: combined optomotor response (time in upper well half, down vs up moving lines, periods 7-14) minus DMSO control (percentage points); higher = stronger optomotor response than DMSO larvae
particulars: 10 µM; exposure time: 3 h pre-incubation + 3 h imaging
Where a name gives a salt, the structure may show the parent alone.
Label met when combined optomotor response is at or above -7; anything below gets not met.

>  <compound>
CCN(C)C(=O)Oc1cccc([C@H](C)N(C)C)c1 [Rivastigmine tartrate]

>  <qualitative_label>
met

$$$$
>  <compound>
CC(C)C[C@H]1C(=O)N2CCC[C@H]2[C@]2(O)O[C@](NC(=O)[C@@H]3C=C4c5cccc6[nH]c(Br)c(c56)C[C@H]4N(C)C3)(C(C)C)C(=O)N12 [Bromocriptine mesylate]

>  <qualitative_label>
not met

$$$$
>  <compound>
Cc1cccc([C@H](C)c2c[nH]cn2)c1C [Dexmedetomidine hydrochloride]

>  <qualitative_label>
not met

$$$$
>  <compound>
CN1C[C@H](C(=O)N[C@]2(C)O[C@@]3(O)[C@@H]4CCCN4C(=O)[C@H](Cc4ccccc4)N3C2=O)C[C@@H]2c3cccc4[nH]cc(c34)C[C@H]21 [Dihydroergotamine mesylate]

>  <qualitative_label>
met

$$$$
>  <compound>
CC[C@@H](C(N)=O)N1CCCC1=O

>  <qualitative_label>
met

$$$$
>  <compound>
CC(O)(CS(=O)(=O)c1ccc(F)cc1)C(=O)Nc1ccc(C#N)c(C(F)(F)F)c1 (stereo not drawn) [Bicalutamide]

>  <qualitative_label>
met

$$$$
>  <compound>
N[C@@H]1C[C@H]1c1ccccc1 [Tranylcypromine hydrochloride]

>  <qualitative_label>
met

$$$$

----------
Let's look at some compounds and their measured excitability.
System: Danio rerio larvae (5 dpf)
protocol_notes: excitability (activity period 17 minus period 16, 1-s interval sound) minus DMSO control (percentage points); higher = more acoustic excitability than DMSO larvae
particulars: 10 µM; exposure time: 3 h pre-incubation + 3 h imaging
Counter-ions that a name gives are not always drawn.
readout_label: excitability

>  <compound>
N[C@@H]1C[C@H]1c1ccccc1 [Tranylcypromine hydrochloride]

>  <reading>
3.55

$$$$
>  <compound>
O=c1[nH]c2ccccc2n1C1CCN(CCCC(c2ccc(F)cc2)c2ccc(F)cc2)CC1 [Pimozide]

>  <reading>
-0.377

$$$$
>  <compound>
CC(O)(CS(=O)(=O)c1ccc(F)cc1)C(=O)Nc1ccc(C#N)c(C(F)(F)F)c1 (stereo unspecified) [Bicalutamide]

>  <reading>
3.42

$$$$
>  <compound>
C=CCN1C[C@H](C(=O)N(CCCN(C)C)C(=O)NCC)C[C@@H]2c3cccc4[nH]cc(c34)C[C@H]21 [Cabergoline]

>  <reading>
12.4

$$$$
>  <compound>
Cc1cccc([C@H](C)c2c[nH]cn2)c1C [Dexmedetomidine hydrochloride]

>  <reading>
5.7

$$$$
>  <compound>
CCN(C)C(=O)Oc1cccc([C@H](C)N(C)C)c1 [Rivastigmine tartrate]

>  <reading>
3.52

$$$$
